Hi there, I'd appreciate the recorded inhibition of aggregation for every entry that follows.
- measurementDescription: reduction of polyQ htt aggregates in cells – imaging, exon1htt(103Q)mCFP cells, high-content imaging, primary screen (AID 483);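 further: compound exposure lasted 3 days before fixation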
- conditions: exon1htt(103Q)mCFP cell line, aggregate imaging, at 2 µM; hits give high values
Answers are plain numbers, in %.

Solved entries (count: 4):
Query :: What value of inhibition of aggregation has been recorded for this entry: Cc1cccc(NC2SC(=O)N(c3ccccc3)C2=O)c1 (stereo unspecified)
Result :: 11.5

Query :: What value of inhibition of aggregation has been recorded for this entry: Cc1ccc(C)c(NS(=O)(=O)c2ccc(NC(=O)c3ccco3)cc2)c1
Result :: 4.7

Query :: What value of inhibition of aggregation has been recorded for this entry: CCOC(=O)c1c(-c2ccc(C)o2)csc1NC(=O)COC(=O)c1cccs1
Result :: 10

Query :: What value of inhibition of aggregation has been recorded for this entry: CCN(Cc1ccccc1)C(c1ccncc1)c1nnnn1C(C)(C)C (stereo unspecified)
Result :: -32

Fill in inhibition of aggregation for each of the 7 compounds listed.
1. CCCCN(CCCC)CCn1cnc2c([nH]c3ccc(OC)cc32)c1=O
2. COc1ccc(NC(=O)CCc2ccccc2)cc1NC(=O)c1ccco1
3. CCOC(=O)N1CCN(C(=O)CN2C(=O)COc3ccc(C)cc32)CC1
4. CSc1nc2ccc(Nc3nc(N4CCOCC4)nc(N4CCOCC4)n3)cc2s1
5. c1ccc(OCc2nc(-c3ccccc3)no2)cc1
6. COc1cc(/C=N/n2cnnc2)ccc1OCC(=O)N1CCOCC1
7. O=C1c2ccccc2C(Nc2ccc3c(c2)OCCO3)N1Cc1ccc2c(c1)OCO2 (stereo unspecified)

Result ::
1. 0.2
2. 8.7
3. 9.7
4. 6.4
5. 12.9
6. -5.1
7. -2.8
